- Experimental target: PERK (Homo sapiens)
- Sequence (Q9NZJ5 30-1116): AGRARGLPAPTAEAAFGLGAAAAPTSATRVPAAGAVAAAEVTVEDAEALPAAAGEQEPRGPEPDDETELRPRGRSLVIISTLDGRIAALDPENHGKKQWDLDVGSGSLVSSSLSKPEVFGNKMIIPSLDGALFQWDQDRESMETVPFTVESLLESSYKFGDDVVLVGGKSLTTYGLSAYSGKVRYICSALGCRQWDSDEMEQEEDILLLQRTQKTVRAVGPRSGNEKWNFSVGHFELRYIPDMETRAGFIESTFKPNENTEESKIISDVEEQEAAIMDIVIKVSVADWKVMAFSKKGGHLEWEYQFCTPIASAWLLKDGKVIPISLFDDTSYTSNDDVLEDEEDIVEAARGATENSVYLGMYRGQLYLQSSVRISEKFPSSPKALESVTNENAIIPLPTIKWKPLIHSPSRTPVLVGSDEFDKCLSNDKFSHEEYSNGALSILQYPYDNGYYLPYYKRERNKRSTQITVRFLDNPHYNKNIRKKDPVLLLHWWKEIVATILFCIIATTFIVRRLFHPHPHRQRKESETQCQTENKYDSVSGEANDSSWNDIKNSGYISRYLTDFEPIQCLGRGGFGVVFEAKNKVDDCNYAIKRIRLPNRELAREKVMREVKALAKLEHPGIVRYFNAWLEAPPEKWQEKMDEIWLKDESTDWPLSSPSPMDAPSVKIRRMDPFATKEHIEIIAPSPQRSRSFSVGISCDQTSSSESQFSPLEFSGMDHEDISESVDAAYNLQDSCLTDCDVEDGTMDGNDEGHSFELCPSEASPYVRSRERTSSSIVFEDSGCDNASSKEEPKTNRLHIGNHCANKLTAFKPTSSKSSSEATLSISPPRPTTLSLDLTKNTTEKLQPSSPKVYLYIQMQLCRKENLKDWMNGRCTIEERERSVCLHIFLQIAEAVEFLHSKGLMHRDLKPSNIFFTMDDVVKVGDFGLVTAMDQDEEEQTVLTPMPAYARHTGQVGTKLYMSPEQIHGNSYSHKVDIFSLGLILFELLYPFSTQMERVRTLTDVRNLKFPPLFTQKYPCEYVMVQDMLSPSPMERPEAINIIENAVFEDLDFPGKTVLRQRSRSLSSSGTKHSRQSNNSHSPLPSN
- Assay comment: Cell-based PERK inhibition assay (TR-FRET, phosphorylation of GFP-eIF2 alpha in HEK293 cells, tunicamycin)
- Experimental context: HEK293 (LanthaScreen eIF2α GripTite) cells, compounds 60 min, tunicamycin 2 microg/ml 120 min; read-out: P-eIF2alpha_Lantha_cell pIC50 (converted)
Rule: measured IC50 below 1000 nM gets Condition met; anything equal to or greater than 1000 nM gets Condition not met.

| Molecule smiles | Class label |
| --- | --- |
| COc1cc2ncnc(Nc3ccc4c(c3)CCN4C(=O)Cc3c(-c4ccoc4)cnn3C)c2cc1OC | Condition not met |
| COc1cc2ncnc(Nc3ccc4c(c3)CCN4C(=O)Cc3c(-c4cnn(C)c4)cnn3C)c2cc1OC | Condition not met |
| COc1cc2ncnc(Nc3ccc4c(c3)CCN4C(=O)Cc3c(-c4ccccc4)cnn3C)c2cc1OC | Condition not met |
| COc1cc2ncnc(Nc3ccc4c(c3)CCN4C(=O)Cc3cn(C)c4ccccc34)c2cc1OC | Condition met |
| COc1cc2ncnc(Nc3ccc4c(c3)CCN4C(=O)Cc3c(C)nc4ccccn34)c2cc1OC | Condition not met |
| COc1ccc2ncnc(Nc3ccc4c(c3)CCN4C(=O)Cc3cc(F)cc(C(F)(F)F)c3)c2c1 | Condition not met |
| COc1cc2ncnc(Nc3ccc4c(c3)CCN4C(=O)Cn3ccc4ccc(F)cc43)c2cc1OC | Condition met |
| COc1cc2ncnc(Nc3ccc4c(c3)CCN4C(=O)Cn3ccnc3)c2cc1OC | Condition not met |
| COc1cc2ncnc(Nc3ccc4c(c3)CCN4C(=O)Cc3coc4ccccc34)c2cc1OC | Condition not met |
| COc1cc2ncnc(Nc3ccc4c(c3)CCN4C(=O)COc3ccccc3C(C)=O)c2cc1OC | Condition not met |

Exercise: Is IC50 strictly under 1000 nM for the entry `COc1cc2ncnc(Nc3ccc4c(c3)CCN4C(=O)Cn3c(=O)n(C)c4ccccc43)c2cc1OC` ?
Solution: Condition not met

Exercise: For this compound, is IC50 lower than 1000 nM? `COc1cc2ncnc(Nc3ccc4c(c3)CCN4C(=O)Cn3ncc4ccccc43)c2cc1OC`
Solution: Condition not met

Exercise: # check: IC50 < 1000 nM for `COc1cc2ncnc(Nc3ccc4c(c3)C(F)(F)CN4C(=O)Cc3cc(F)ccc3F)c2cc1OC`
Solution: Condition met

Exercise: Strictly below 1000 nM: is that where IC50 of `COc1cc2ncnc(Nc3ccc4c(c3)CCN4C(=O)Cc3c[nH]c4ccccc34)c2cc1OC` sits?
Solution: Condition met

Exercise: Quick check: IC50 of `COc1cc2ncnc(Nc3ccc4c(c3)CCN4C(=O)Cc3c(C)n(C)c4ccccc34)c2cc1OC` under 1000 nM?
Solution: Condition met

Exercise: Find out if reported IC50 for `COc1cc2ncnc(Nc3ccc4c(c3)CCN4C(=O)Cc3c(-c4ccsc4)cnn3C)c2cc1OC` is less than 1000 nM
Solution: Condition not met

###

- Experimental target: PERK (Homo sapiens)
- Assay comment: Cell-based PERK inhibition assay (TR-FRET, phosphorylation of GFP-eIF2 alpha in HEK293 cells, tunicamycin)
- Experimental context: HEK293 (LanthaScreen eIF2α GripTite) cells, compounds 60 min, tunicamycin 2 microg/ml 120 min; read-out: P-eIF2alpha_Lantha_cell pIC50 (converted)
- Protocol: A cell-based TR-FRET assay to measure inhibition of phosphorylation of GFP-eIF2 alpha expressed in HEK293 cells by compounds was set up as follows: LanthaScreen® eIF2α GripTite cells (Invitrogen M4387) were plated and incubated for 16-20 h at 37° C. and 5% CO2, incubated with test compounds for 60 min, and then stimulated with tunicamycin (2 microg/ml) for 120 min. […]
Endpoint label: log10 of IC50 (log10 of the value in nM)
The figures below represent log10 of IC50, where IC50 is stated in nM.

| Compound | Endpoint label | Test result |
| --- | --- | --- |
| Cc1[nH]c2ccccc2c1CC(=O)N1CCc2cc(Nc3ncnc4cc5c(cc34)OCO5)ccc21 [Compound 10] | log10 of IC50 | 2.20 |
| COc1cc2ncnc(Nc3ccc4c(c3)CCN4C(=O)Cc3ccccc3)c2cc1OC [Compound 21] | log10 of IC50 | 3.10 |
| COc1cc2ncnc(Nc3ccc4c(c3)CCN4C(=O)Cc3n[nH]c4ccccc34)c2cc1OC [Compound 26] | log10 of IC50 | 3.50 |

Exercise: For the compound COc1cc2ncnc(Nc3ccc4c(c3)CCN4C(=O)Cc3ccsc3)c2cc1OC [Compound 22] , what log10 of IC50 is on record?
Solution: 3.30

Exercise: Give the measured log10 of IC50 of COc1cc2ncnc(Nc3ccc4c(c3)CCN4C(=O)Cc3c(C)[nH]c4ccccc34)c2cc1OCCCN1CCOCC1 [Compound 8] .
Solution: 2.20

Exercise: // query log10 of IC50 value for entry COc1cc2ncnc(Nc3ccc4c(c3)CCN4C(=O)Cc3nn(C)c4ccccc34)c2cc1OC [Compound 17]
Solution: 2.90
